Experiment: chemical genetic growth profiling, strain panel (AID 1159580);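 note: tested at 20 µM; growth read once vehicle control cultures reached saturation at 30 °C; 1 = growth at the plate median or of vehicle wells; lower values mean less growth of the strain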
Conditions: S. cerevisiae deletion strains, growth OD, locus YMR125W, strain sto1
In all, about 5,500 compounds went through this assay and about 2,000 (36%) were called active. Roughly 18% stayed inconclusive and do not appear here. Cut-off read from the data, not from the text of the source: active = normalized growth mostly below about 0.91 (no sharp cut-off); inconclusive = no clear call, values can overlap the other calls; inactive = mostly above about 0.92. This is one part of the list.
Hello, when you answer, please use one of the following outcomes: True for active, False for inactive

These solved cases illustrate the format of a correct answer.
compound	discrete.label
ClC1=C(Cl)C2(Cl)C3C(Cl)C=CC3C1(Cl)C2(Cl)Cl (configuration not stated)	False
CCN(CC)CCCC(C)Nc1c2ccc(Cl)cc2nc2ccc(OC)cc12 (configuration not stated)	False
COc1ccc2cc([C@H](C)CO)ccc2c1	False
C[C@]12CCC(=O)C=C1CCC1C2CC[C@@]2(C)C1CC[C@@H]2O (some centres not stated)	False
CC(C(=O)O)c1ccc(-c2ccccc2)c(F)c1 (configuration not stated)	False
COc1cc2c(cc1OC)Cc1cc(OC)c(OC)cc1Cc1cc(OC)c(OC)cc1C2	False
CC(=O)OCC(=O)[C@H]1CCC2C3CCC4=CC(=O)CC[C@]4(C)C3CC[C@@]21C (some centres not stated)	False
COc1ccc2c3c1O[C@H]1C[C@@H](O)C=C[C@@]31CCN(C)C2	False
CC(=O)OCC[N+](C)(C)C	False
COC1=C(OC)C(=O)C(C/C=C(\C)CC/C=C(\C)CC/C=C(\C)CC/C=C(/C)CC/C=C(\C)CC/C=C(\C)CC/C=C(\C)CC/C=C(\C)CC/C=C(\C)CCC=C(C)C)=C(C)C1=O	False

Task: Lab log entry: OCCN1C[C@@H](O)[C@@H](O)C(O)C1CO (some centres not stated) — outcome as called in the assay?
Result: False

Task: Next up: CCN(CC)CCCC(C)Nc1ccnc2cc(Cl)ccc12 (configuration not stated)
Result: False

Task: Next up: CCN(CCO)CCCC(C)Nc1ccnc2cc(Cl)ccc12 (configuration not stated)
Result: False

Task: Next up: `CCCCCCNC(=O)n1cc(F)c(=O)[nH]c1=O`
Result: False

Task: Next up: `CC(=O)OC(C)(C)[C@@H]1Cc2cc3ccc(=O)oc3cc2O1`
Result: False

Task: Next up: `COc1ccc2cc([C@H](C)C(=O)O)ccc2c1`
Result: False

----------
Assay: chemical genetic growth profiling, strain panel (AID 1159580)
Settings: S. cerevisiae deletion strains, growth OD, locus YPR167C, strain met16, active compounds read low
About 2,000 (36%) of roughly 5,500 compounds were called active. Not shown: some 18% with an inconclusive outcome. The list shows a part of the results.
recorded.metric: normalized growth
Answer field: number only, no words.

Check out these entries, answers already filled in.
compound	normalized growth
CC(N)CCCC(C)(C)O (stereo unspecified)	1.01
c1cncc(C2CCCCN2)c1 (stereo unspecified)	0.999
C=C1C([C@]2(C)C(CC(=O)OC)[C@@](C)(COC(C)=O)OC(=O)C[C@@H]2OC(C)=O)[C@@H](OC=O)[C@H](OC(=O)C(O)C(C)CC)[C@@]2(C)[C@H](c3ccoc3)CC(=O)C12O (stereo partly specified)	1.01

Task: What value of normalized growth has been recorded for this entry: `CCCCNc1cc(C(=O)O)cc(S(N)(=O)=O)c1Oc1ccccc1`
Result: 0.986

Task: Next up: CC(=O)C1CCC2C3CC(=O)C4=CC(=O)CCC4(C)C3CCC12C (stereo unspecified)
Result: 0.979

Task: Next up: `CC[C@H]1OC(=O)[C@H](C)[C@@H](O[C@H]2C[C@@](C)(OC)[C@@H](O)[C@H](C)O2)[C@H](C)[C@@H](O[C@@H]2O[C@H](C)C[C@H](N(C)C)[C@H]2O)[C@](C)(O)C[C@@H](C)CN(C)[C@H](C)[C@@H](O)[C@]1(C)O`
Result: 0.984

----------
Assay: chemical genetic growth profiling, strain panel (AID 1159580)
Settings: S. cerevisiae deletion strains, growth OD, locus YDL035C, strain GPR1, active compounds read low
About 2,000 (36%) of roughly 5,500 compounds were called active. About 18% were inconclusive and are not listed. The list shows a part of the results.
Measured normalized growth, listed per entry for reference.
Answer field: number only, no words.

Check out these entries, answers already filled in.
compound	normalized growth
COCCc1ccc(OCC(O)CNC(C)C)cc1 (stereo not given)	0.997
C=C1C([C@]2(C)C(CC(=O)OC)[C@@](C)(COC(C)=O)OC(=O)C[C@@H]2OC(C)=O)[C@@H](OC=O)[C@H](OC(=O)C(OC(C)=O)C(C)CC)[C@@]2(C)[C@H](c3ccoc3)CC(=O)C12O (stereo not given in full)	1.01

Task: What value of normalized growth has been recorded for this entry: `CNCCc1ccccn1`
Result: 0.992

Task: Next up: `COc1cc2c(cc1OC)[C@@H]1C(=O)c3ccc(OC)c(CC=C(C)C)c3O[C@@H]1CO2`
Result: 1.06

----------
Measured normalized growth, listed per entry for reference.
Assay: chemical genetic growth profiling, strain panel (AID 1159580);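 note: tested at 20 µM; growth read once vehicle control cultures reached saturation at 30 °C; 1 = growth at the plate median or of vehicle wells; lower values mean less growth of the strain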
Conditions: S. cerevisiae deletion strains, growth OD, locus YML032C, strain rad52, active compounds read low
Hit rate of the full screen: of about 5,500 compounds, about 2,000 (36%) were called active. Roughly 18% stayed inconclusive and do not appear here. The list shows a part of the results.
Answer field: number only, no words.

Task: What value of normalized growth has been recorded for this entry: C=C1C([C@]2(C)C(CC(=O)OC)[C@@](C)(COC(C)=O)OC(=O)C[C@@H]2OC(C)=O)[C@@H](OC=O)[C@H](OC(=O)C(O)C(C)CC)[C@@]2(C)[C@H](c3ccoc3)CC(=O)C12O (stereo not given in full)
Result: 0.991

Task: Next up: `c1ccc(N=Nc2ccccc2)cc1`
Result: 1.01

Task: Next up: `COc1ccc2c(C)cc(=O)oc2c1`
Result: 1.01

Task: Next up: `COC1=CC(=O)C[C@@H](C)[C@]12Oc1c(Cl)c(OC)cc(OC)c1C2=O`
Result: 0.986

Task: Next up: `Cc1c(O)c(C(=O)CC(C)C)c2oc3c(C(=O)CC(C)C)c(O)c(C)c(O)c3c2c1O`
Result: 0.999

----------
Test: chemical genetic growth profiling, strain panel (AID 1159580);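 note: tested at 20 µM; growth read once vehicle control cultures reached saturation at 30 °C; 1 = growth at the plate median or of vehicle wells; lower values mean less growth of the strain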
Settings: S. cerevisiae deletion strains, growth OD, locus YNL307C, strain MCK1, active compounds read low
Among all 5,500 compounds or so, about 2,000 (36%) were called active. Another 18% or so got no clear call; they are omitted. Some of the results follow.
recorded.metric: normalized growth
Answer field: number only, no words.

Check out these entries, answers already filled in.
1) CC1(C)OC(=O)NC1=O 0.983
2) CC(=O)N[C@@H](CC(C)C)C(=O)O 0.991

Task: What value of normalized growth has been recorded for this entry: `COc1cc2c(cc1OC)C(=O)OC2`
Result: 1.02

Task: Next up: `COc1cc2c(cc1OC)Cc1cc(OC)c(OC)cc1Cc1cc(OC)c(OC)cc1C2`
Result: 1.03

Task: Next up: `COc1ccc2c(c1)O[C@@H]1COc3cc(OC)c(OC)cc3[C@@H]1C2=O`
Result: 0.183

----------
Assay: chemical genetic growth profiling, strain panel (AID 1159580);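 note: tested at 20 µM; growth read once vehicle control cultures reached saturation at 30 °C; 1 = growth at the plate median or of vehicle wells; lower values mean less growth of the strain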
Conditions: S. cerevisiae deletion strains, growth OD, locus YKL009W, strain mrt4, active compounds read low
Out of some 5,500 compounds screened, about 2,000 (36%) were called active. Another 18% or so got no clear call; they are omitted. The list shows a part of the results.
recorded.metric: normalized growth
Answer field: number only, no words.

compound	normalized growth
CCC(=O)O[C@H]1[C@H](O[C@@H]2[C@@H](C)[C@H](O[C@H]3C[C@@](C)(OC)[C@@H](O)[C@H](C)O3)[C@@H](C)C(=O)O[C@H](CC)[C@@](C)(O)[C@H](O)[C@@H](C)C(=O)[C@H](C)C[C@@]2(C)O)O[C@H](C)C[C@@H]1N(C)C	0.932
CS(=O)(=O)c1ccc(C2=C(c3ccccc3)C(=O)OC2)cc1	0.949
CC(=O)OCC(=O)[C@H]1CCC2C3CCC4=CC(=O)CC[C@]4(C)C3CC[C@@]21C (some centres undefined)	0.909

Task: What value of normalized growth has been recorded for this entry: CC1=C(C(C)O)C2=NC1C=c1[nH]c(c(C)c1C(C)O)=Cc1[nH]c(c(CCC(=O)O)c1C)C=c1[nH]c(c(C)c1CCC(=O)O)=C2 (centres undefined)
Result: 1.04

Task: Next up: C=Cc1c2[nH]c(c1C)C=c1[nH]c(c(C)c1C=C)=CC1N=C(C=c3[nH]c(c(C)c3CCC(=O)O)=C2)C(CCC(=O)O)=C1C (centres undefined)
Result: 0.791

Task: Next up: `CCOC(=O)CCC(=O)O[C@H]1[C@H](O[C@@H]2[C@@H](C)[C@H](O[C@H]3C[C@@](C)(OC)[C@@H](O)[C@H](C)O3)[C@@H](C)C(=O)O[C@H](CC)[C@@](C)(O)[C@H](O)[C@@H](C)C(=O)[C@H](C)C[C@@]2(C)O)O[C@H](C)C[C@@H]1N(C)C`
Result: 0.971
